molecular target: human collagen type I (acid soluble, extracted from placenta, Sigma C7774) (human) (UniProt P02452); assay: dried collagen assay, 5 uM each
Sequence (P02452 162-1218 limits assumed, chain 1 of 2): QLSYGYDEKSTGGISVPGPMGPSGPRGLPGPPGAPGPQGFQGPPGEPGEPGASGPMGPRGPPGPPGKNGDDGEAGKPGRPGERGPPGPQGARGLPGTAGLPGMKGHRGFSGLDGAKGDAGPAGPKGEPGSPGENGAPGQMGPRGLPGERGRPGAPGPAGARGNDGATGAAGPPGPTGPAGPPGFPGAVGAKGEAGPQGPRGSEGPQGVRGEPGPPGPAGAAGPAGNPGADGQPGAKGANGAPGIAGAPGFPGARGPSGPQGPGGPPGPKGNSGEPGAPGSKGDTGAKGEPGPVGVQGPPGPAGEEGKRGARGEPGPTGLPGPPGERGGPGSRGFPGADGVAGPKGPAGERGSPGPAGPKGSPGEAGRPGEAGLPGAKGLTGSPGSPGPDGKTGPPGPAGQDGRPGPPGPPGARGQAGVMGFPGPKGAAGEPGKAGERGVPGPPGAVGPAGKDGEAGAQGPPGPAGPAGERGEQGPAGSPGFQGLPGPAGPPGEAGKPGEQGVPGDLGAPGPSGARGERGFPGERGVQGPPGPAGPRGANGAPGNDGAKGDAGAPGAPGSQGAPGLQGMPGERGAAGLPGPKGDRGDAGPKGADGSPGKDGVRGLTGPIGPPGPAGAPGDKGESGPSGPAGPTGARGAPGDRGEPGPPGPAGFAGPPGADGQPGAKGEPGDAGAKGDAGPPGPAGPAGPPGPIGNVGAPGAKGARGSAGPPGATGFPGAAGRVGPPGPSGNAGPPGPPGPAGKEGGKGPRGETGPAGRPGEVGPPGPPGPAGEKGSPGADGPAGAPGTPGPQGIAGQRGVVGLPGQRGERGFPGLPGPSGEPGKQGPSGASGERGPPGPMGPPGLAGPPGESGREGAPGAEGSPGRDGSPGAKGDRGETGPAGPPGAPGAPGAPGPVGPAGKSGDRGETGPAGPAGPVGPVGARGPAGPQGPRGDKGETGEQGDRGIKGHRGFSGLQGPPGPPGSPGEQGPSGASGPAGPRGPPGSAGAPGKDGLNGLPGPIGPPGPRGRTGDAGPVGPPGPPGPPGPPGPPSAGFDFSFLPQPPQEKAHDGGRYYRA
Sequence (P08123 80-1119 limits assumed, chain 2 of 2, further chain): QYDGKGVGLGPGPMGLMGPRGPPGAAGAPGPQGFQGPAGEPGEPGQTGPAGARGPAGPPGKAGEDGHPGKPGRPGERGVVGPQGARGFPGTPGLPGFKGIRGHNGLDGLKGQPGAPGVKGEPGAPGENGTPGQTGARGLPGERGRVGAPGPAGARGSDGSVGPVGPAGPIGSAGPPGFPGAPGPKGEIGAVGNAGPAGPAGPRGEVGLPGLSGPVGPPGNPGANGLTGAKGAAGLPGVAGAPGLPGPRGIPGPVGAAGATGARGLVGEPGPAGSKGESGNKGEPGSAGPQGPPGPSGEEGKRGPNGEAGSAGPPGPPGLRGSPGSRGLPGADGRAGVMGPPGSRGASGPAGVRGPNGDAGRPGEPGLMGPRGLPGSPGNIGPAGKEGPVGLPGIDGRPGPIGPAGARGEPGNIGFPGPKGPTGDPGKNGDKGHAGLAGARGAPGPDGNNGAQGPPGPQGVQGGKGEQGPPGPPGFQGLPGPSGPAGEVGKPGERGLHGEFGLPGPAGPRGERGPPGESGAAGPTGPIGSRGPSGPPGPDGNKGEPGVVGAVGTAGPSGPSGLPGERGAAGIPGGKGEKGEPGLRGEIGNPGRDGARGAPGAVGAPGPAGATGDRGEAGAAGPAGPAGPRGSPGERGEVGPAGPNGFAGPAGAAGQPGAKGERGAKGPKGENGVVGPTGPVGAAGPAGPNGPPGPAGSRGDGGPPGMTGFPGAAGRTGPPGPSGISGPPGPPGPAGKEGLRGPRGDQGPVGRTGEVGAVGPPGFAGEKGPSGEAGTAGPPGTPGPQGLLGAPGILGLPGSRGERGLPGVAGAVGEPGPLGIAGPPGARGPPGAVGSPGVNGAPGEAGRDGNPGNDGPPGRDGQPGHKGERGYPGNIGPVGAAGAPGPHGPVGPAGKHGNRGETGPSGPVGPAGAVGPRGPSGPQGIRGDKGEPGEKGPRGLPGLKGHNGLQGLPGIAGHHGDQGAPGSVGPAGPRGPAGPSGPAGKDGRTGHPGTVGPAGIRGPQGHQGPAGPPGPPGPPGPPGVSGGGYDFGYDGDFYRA
readout: Human binding (%)
Give the quantity in %, number only.

Consider the following illustrative entries.
GQWHCTTRFPHHYCFYG [Compound ID 931]
70
GKWHCTTLFPHHYCLYG [Compound ID 930]
31
GQWHCTNRFPHHYCLYG [Compound ID 897]
4

Continue with the next binder.
### Prompt Human binding for GKWHCTTYFPHHFCLYG [Compound ID 972] ?
### Response 3
